The entries below come with measured EC90 values attached.
test system: Huh-7; assay: Inhibition of HCV genotype-1a NS5A infected in human HuH7 cells by luciferase reporter gene assay; assay type: cell-based; conditions: Hepatitis C virus subtype 1a

{"columns": ["molecule", "EC90 (nM)"],
 "data": [
  ["COC(=O)N[C@H](C(=O)N1CCC[C@H]1c1ncc(-c2ccc3c(c2)OC(c2ccc(Cl)s2)n2c-3cc3cc(-c4cnc([C@@H]5CCCN5C(=O)[C@@H](NC(=O)OC)C(C)C)[nH]4)ccc32)[nH]1)C(C)C (mixture of isomers)", 0.02],
  ["COC(=O)N[C@H](C(=O)N1CCC[C@H]1c1ncc(-c2cc(F)c3c(c2)OC(c2cc4c(s2)CCC4)n2c-3cc3cc(-c4cnc([C@@H]5CCCN5C(=O)[C@@H](NC(=O)OC)C(C)C)[nH]4)ccc32)[nH]1)C(C)C (some centres undefined)", 0.003],
  ["COC(=O)N[C@H](C(=O)N1CCC[C@H]1c1ncc(-c2cc(F)c3c(c2)OC(c2csc(C4CC4)c2)n2c-3cc3cc(-c4cnc([C@@H]5CCCN5C(=O)[C@@H](NC(=O)OC)C(C)C)[nH]4)ccc32)[nH]1)C(C)C (some centres undefined)", 0.002],
  ["COC(=O)N[C@H](C(=O)N1CCC[C@H]1c1ncc(-c2cc(F)c3c(c2)OC(c2cccs2)n2c-3cc3cc(-c4cnc([C@@H]5CCCN5C(=O)[C@@H](NC(=O)OC)C(C)C)[nH]4)ccc32)[nH]1)C(C)C (mixture of isomers)", 0.03]
]}

====

assay: Oral bioavailability in rhesus monkey at 5 mg/kg measured at 48 hrs post dose by LC/MS/MS method; assay type: ADME, organism-based, Macaca mulatta; conditions: in vivo

{"columns": ["molecule", "measurementUnit", "bioavailability"],
 "data": [
  ["COC(=O)N[C@H](C(=O)N1CCC[C@H]1c1ncc(-c2cc(F)c3c(c2)OC(c2cc(C(C)C)no2)n2c-3cc3cc(-c4cnc([C@@H]5CCCN5C(=O)[C@@H](NC(=O)OC)C(C)C)[nH]4)ccc32)[nH]1)C(C)C (stereo partly specified)", "%", 10]
]}

====

Selectivity ratio for assorted molecules
experiment: Selectivity ratio for EC90 for HCV genotype-4a NS5A to EC90 for HCV genotype-1a NS5A

{"columns": ["molecule", "Selectivity ratio"],
 "data": [
  ["COC(=O)N[C@H](C(=O)N1CCC[C@H]1c1ncc(-c2cc(F)c3c(c2)OC(c2ccc(C4CC4)s2)n2c-3cc3cc(-c4cnc([C@@H]5CCCN5C(=O)[C@@H](NC(=O)OC)C(C)C)[nH]4)ccc32)[nH]1)C(C)C (some centres undefined)", 3],
  ["CCc1ccc([C@@H]2Oc3cc(-c4cnc([C@@H]5CCCN5C(=O)[C@@H](NC(=O)OC)C(C)C)[nH]4)cc(F)c3-c3cc4cc(-c5cnc([C@@H]6CCCN6C(=O)[C@@H](NC(=O)OC)C(C)C)[nH]5)ccc4n32)s1", 1],
  ["COC(=O)N[C@H](C(=O)N1CCC[C@H]1c1ncc(-c2cc(F)c3c(c2)O[C@@H](c2cnc(C4CC4)s2)n2c-3cc3cc(-c4cnc([C@@H]5CCCN5C(=O)[C@@H](NC(=O)OC)C(C)C)[nH]4)ccc32)[nH]1)C(C)C", 2],
  ["CCCc1ncc(C2Oc3cc(-c4cnc([C@@H]5CCCN5C(=O)[C@@H](NC(=O)OC)C(C)C)[nH]4)cc(F)c3-c3cc4cc(-c5cnc([C@@H]6CCCN6C(=O)[C@@H](NC(=O)OC)C(C)C)[nH]5)ccc4n32)s1 (some centres undefined)", 10]
]}

====

tested on: Nonstructural protein 5A (Hepatitis C virus), Q5L478 [Y93H]; test: Inhibition of HCV genotype-1a NS5A Y93H mutant infected in human HuH7 cells by luciferase reporter gene assay; type: cell-based; conditions: Hepatitis C virus subtype 1a; Huh-7
Sequence (Q5L478 entry or part of it Y93H): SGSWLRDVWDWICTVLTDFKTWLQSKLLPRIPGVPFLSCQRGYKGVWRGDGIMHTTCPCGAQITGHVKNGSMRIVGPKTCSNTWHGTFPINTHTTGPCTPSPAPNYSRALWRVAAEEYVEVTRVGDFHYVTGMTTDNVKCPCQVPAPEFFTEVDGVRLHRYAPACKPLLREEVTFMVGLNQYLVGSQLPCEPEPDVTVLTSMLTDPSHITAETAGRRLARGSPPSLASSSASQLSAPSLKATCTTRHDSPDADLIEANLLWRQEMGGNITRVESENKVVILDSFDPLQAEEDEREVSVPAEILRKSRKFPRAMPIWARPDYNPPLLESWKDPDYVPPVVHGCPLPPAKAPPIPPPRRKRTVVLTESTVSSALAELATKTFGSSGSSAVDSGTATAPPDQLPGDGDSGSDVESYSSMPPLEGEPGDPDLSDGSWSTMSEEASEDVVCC
Please respond with label 1 when measured EC90 is strictly beneath 0.2 nM, and with label 0 in all other cases.

{"columns": ["molecule", "assayedSystem", "label"],
 "data": [
  ["CCOc1cccc([C@@H]2Oc3cc(-c4cnc([C@@H]5CCCN5C(=O)[C@@H](NC(=O)OC)C(C)C)[nH]4)ccc3-c3cc4cc(-c5cnc([C@@H]6CCCN6C(=O)[C@@H](NC(=O)OC)C(C)C)[nH]5)ccc4n32)c1", "Nonstructural protein 5A (Hepatitis C virus), Q5L478 [Y93H]", "label 0"],
  ["COC(=O)N[C@H](C(=O)N1CCC[C@H]1c1ncc(-c2ccc3c(c2)cc2n3C(c3cc4ccccc4s3)Oc3cc(-c4cnc([C@@H]5C[C@@H](F)CN5C(=O)[C@@H](NC(=O)OC)C(C)C)[nH]4)ccc3-2)[nH]1)C(C)C (some centres not stated)", "Nonstructural protein 5A (Hepatitis C virus), Q5L478 [Y93H]", "label 0"],
  ["COC(=O)N[C@H](C(=O)N1CCC[C@H]1c1ncc(-c2cc(F)c3c(c2)O[C@@H](c2cnc(C4CC4)s2)n2c-3cc3cc(-c4cnc([C@@H]5CCCN5C(=O)[C@@H](NC(=O)OC)C(C)C)[nH]4)ccc32)[nH]1)C(C)C [RUZASVIR]", "Nonstructural protein 5A (Hepatitis C virus), Q5L478 [Y93H]", "label 1"],
  ["CCOc1cccc([C@@H]2Oc3cc(-c4cnc([C@@H]5CCCN5C(=O)[C@@H](NC(=O)OC)C(C)C)[nH]4)cc(F)c3-c3cc4cc(-c5cnc([C@@H]6CCCN6C(=O)[C@@H](NC(=O)OC)C(C)C)[nH]5)ccc4n32)c1", "Nonstructural protein 5A (Hepatitis C virus), Q5L478 [Y93H]", "label 0"],
  ["COC(=O)N[C@H](C(=O)N1CCC[C@H]1c1ncc(-c2cc(F)c3c(c2)OC(c2cnc(C4CC4)o2)n2c-3cc3cc(-c4cnc([C@@H]5CCCN5C(=O)[C@@H](NC(=O)OC)C(C)C)[nH]4)ccc32)[nH]1)C(C)C (some centres not stated)", "Nonstructural protein 5A (Hepatitis C virus), Q5L478 [Y93H]", "label 0"],
  ["COC(=O)N[C@H](C(=O)N1CCC[C@H]1c1ncc(-c2cc(F)c3c(c2)OC(c2ccc(C(C)C)s2)n2c-3cc3cc(-c4cnc([C@@H]5CCCN5C(=O)[C@@H](NC(=O)OC)C(C)C)[nH]4)ccc32)[nH]1)C(C)C (some centres not stated)", "Nonstructural protein 5A (Hepatitis C virus), Q5L478 [Y93H]", "label 1"],
  ["COC(=O)N[C@H](C(=O)N1CCC[C@H]1c1ncc(-c2cc(F)c3c(c2)OC(c2cnc(C(C)C)s2)n2c-3cc3cc(-c4cnc([C@@H]5C[C@H]6C[C@H]6N5C(=O)[C@@H](NC(=O)OC)C(C)C)[nH]4)ccc32)[nH]1)C(C)C (some centres not stated)", "Nonstructural protein 5A (Hepatitis C virus), Q5L478 [Y93H]", "label 1"],
  ["COC(=O)N[C@H](C(=O)N1CCC[C@H]1c1ncc(-c2cc(F)c3c(c2)OC(c2ccc(CC(F)(F)F)s2)n2c-3cc3cc(-c4cnc([C@@H]5CCCN5C(=O)[C@@H](NC(=O)OC)C(C)C)[nH]4)ccc32)[nH]1)C(C)C (some centres not stated)", "Nonstructural protein 5A (Hepatitis C virus), Q5L478 [Y93H]", "label 1"],
  ["CCc1ccc([C@@H]2Oc3cc(-c4cnc([C@@H]5CCCN5C(=O)[C@@H](NC(=O)OC)C(C)C)[nH]4)cc(F)c3-c3cc4cc(-c5cnc([C@@H]6CCCN6C(=O)[C@@H](NC(=O)OC)C(C)C)[nH]5)ccc4n32)s1", "Nonstructural protein 5A (Hepatitis C virus), Q5L478 [Y93H]", "label 1"],
  ["COC(=O)N[C@H](C(=O)N1CCC[C@H]1c1ncc(-c2cc(F)c3c(c2)OC(c2cc4c(s2)CCCC4)n2c-3cc3cc(-c4cnc([C@@H]5CCCN5C(=O)[C@@H](NC(=O)OC)C(C)C)[nH]4)ccc32)[nH]1)C(C)C (some centres not stated)", "Nonstructural protein 5A (Hepatitis C virus), Q5L478 [Y93H]", "label 0"],
  ["COC(=O)N[C@H](C(=O)N1CCC[C@H]1c1ncc(-c2cc(F)c3c(c2)OC(c2cnc(C4(C)CC4)s2)n2c-3cc3cc(-c4cnc([C@@H]5CCCN5C(=O)[C@@H](NC(=O)OC)C(C)C)[nH]4)ccc32)[nH]1)C(C)C (some centres not stated)", "Nonstructural protein 5A (Hepatitis C virus), Q5L478 [Y93H]", "label 0"],
  ["COC(=O)N[C@H](C(=O)N1CCC[C@H]1c1ncc(-c2cc(F)c3c(c2)OC(c2sc(C(C)C)nc2C)n2c-3cc3cc(-c4cnc([C@@H]5CCCN5C(=O)[C@@H](NC(=O)OC)C(C)C)[nH]4)ccc32)[nH]1)C(C)C (some centres not stated)", "Nonstructural protein 5A (Hepatitis C virus), Q5L478 [Y93H]", "label 0"],
  ["CCc1ncc(C2Oc3cc(-c4cnc([C@@H]5CCCN5C(=O)[C@@H](NC(=O)OC)C(C)C)[nH]4)cc(F)c3-c3cc4cc(-c5cnc([C@@H]6C[C@H]7C[C@H]7N6C(=O)[C@@H](NC(=O)OC)C(C)C)[nH]5)ccc4n32)s1 (some centres not stated)", "Nonstructural protein 5A (Hepatitis C virus), Q5L478 [Y93H]", "label 1"],
  ["COC(=O)N[C@H](C(=O)N1CCC[C@H]1c1ncc(-c2cc(F)c3c(c2)OC(c2cnco2)n2c-3cc3cc(-c4cnc([C@@H]5CCCN5C(=O)[C@@H](NC(=O)OC)C(C)C)[nH]4)ccc32)[nH]1)C(C)C (some centres not stated)", "Nonstructural protein 5A (Hepatitis C virus), Q5L478 [Y93H]", "label 0"],
  ["COC(=O)N[C@H](C(=O)N1CCC[C@H]1c1ncc(-c2cc(F)c3c(c2)OC(c2ccc(CC4CC4)s2)n2c-3cc3cc(-c4cnc([C@@H]5CCCN5C(=O)[C@@H](NC(=O)OC)C(C)C)[nH]4)ccc32)[nH]1)C(C)C (some centres not stated)", "Nonstructural protein 5A (Hepatitis C virus), Q5L478 [Y93H]", "label 1"]
]}
